Taken from PubChem BioAssay (NCI).

Tested on: UACC-62 melanoma
Experiment: NCI-60 one-dose screen, 48 h
Conditions: 10 µM unless noted
The panel holds about 83,000 compounds, 20% with a hit somewhere; the sample as a whole holds those more often. Activity calls are given as the source filed them. How the source made its calls: active means growth percent below 10; inactive means the rest.
Classes used: T (active), F (inactive)

| molecule | systemTested | group |
| --- | --- | --- |
| C/C(=N\NC(=O)Cn1c(-c2ccc(S(C)(=O)=O)cc2)nc2cc(Cl)ccc21)c1ccc(Cl)cc1 | UACC-62 melanoma | F |
| Cl.Fc1c[c-]c(-c2ccccn2)c(F)c1.[Pt].c1ccc([PH+](C[PH+](c2ccccc2)c2ccccc2)c2ccccc2)cc1 | UACC-62 melanoma | T |
| CC(C)n1nc(C#Cc2cccc(O)c2)c2c(N)ncnc21 | UACC-62 melanoma | T |
| COc1ccc(/C=C2\COc3ccc(O)cc3C2=O)c(OC)c1 | UACC-62 melanoma | F |
| CN(C)CCn1cc(-c2ccc3c(Nc4ccc(CC(=O)Nc5cccc(F)c5)cc4)ncnc3c2)cn1 | UACC-62 melanoma | T |
| COc1ccc(/C(C)=C(\c2ccc(Cl)cc2)c2ccc(OCCN3CCCC3)cc2)cc1F | UACC-62 melanoma | T |
| CC(C)(C)OC(=O)N1Cc2cc3ccccc3nc2C1CO (stereo not drawn) | UACC-62 melanoma | F |
| C[C@H]1[C@H](C)CC[C@]2(C(=O)N3CCN(C)CC3)CC[C@]3(C)C(=CC[C@@H]4[C@@]5(C)C/C(=C/c6cccnc6)C(=O)C(C)(C)[C@@H]5CC[C@]43C)[C@H]12 | UACC-62 melanoma | T |

----------
Test system: HCT-116 colon
Assay: NCI-60 one-dose screen, 48 h (100 = growth as untreated, 0 = no growth, -100 = all killed)
Conditions: 10 µM unless noted
Description: Growth inhibition of the HCT-116 human tumor cell line is measured as a screen for anti-cancer activity. Cells are grown in 96 well plates and exposed to the test compound for 48 hours. Compounds are tested at a single concentration, which is 10^-5 M for most compounds. The reported endpoint is percent growth (GI% or GIPRCNT), where numbers from 0 - 100% represent growth inhibition, and numbers from -100% - 0 represent cell death. For example, a value of 40 represents 60% growth inhibition. […]
Compounds without any hit were thinned out: in the full panel of roughly 83,000, 20% have a hit.
observedProperty: growth (%)

| compound | recordedValue |
| --- | --- |
| CCCCC1COc2cccc3c(SCC(=O)N(C)c4cccc(Cl)c4)cc[n+]1c23 (centres undefined) | 104 |
| C/C(=N\NC(=O)Cn1c(-c2ccc(S(C)(=O)=O)cc2)nc2cc(Cl)ccc21)c1ccc(Cl)cc1 | 80.5 |
| C=C1C(=O)O[C@H]2[C@H]1CC/C(COC(=O)NCc1ccc(Cn3c(=O)sn(CCCCl)c3=O)cc1)=C\CC[C@@]1(C)O[C@@H]21 | -63.6 |
| Cn1ccc(Cc2cnc(N)s2)n1 | 108 |
| O=C(NCc1cccnc1)c1cc(-c2csc3c(=O)cc(N4CCOCC4)oc23)cc2c1OCCO2 | 45.2 |
| O=c1[nH]c(=O)n(C2CC(O)C(CO)O2)cc1CO (centres undefined) | 91.4 |
| O=C(c1ccccc1)c1ccc(Cl)c([N+](=O)[O-])c1 | 45.2 |
| CNC(=O)c1cc(Oc2ccc3nc(Nc4cc(Cl)cc(Cl)c4)ccc3c2)ccn1 | 49 |
| CCOC(=O)Cc1csc2nc(-c3ccccc3)nn12 | 98.2 |
| O=C(CC12CC3CC(CC(C3)C1)C2)NCCOCCOCCNC(=O)c1cc2c(o1)C(=O)c1ccccc1C2=O | -8.18 |
| CO/C(=C1/NC(=O)C(Cc2ccc(O)c(Br)c2)N(C)C(=O)C(C)NC(=O)CCC/C=C(\C)CCC(C)OC1=O)c1ccccc1 (centres undefined) | 8.19 |
| C[C@@H]1C(=O)N(C[C@H](Cc2ccccc2)N(Cc2ccccc2)Cc2ccccc2)[C@]1(Cc1ccccc1)C(=O)OC(C)(C)C | 40.6 |
| O=S(=O)(NCCNc1cc(-c2c(-c3cccc(O)c3)nc3sccn23)ccn1)c1ccc(Cl)cc1 | 57.4 |
| CN(CCCCCCCCNc1ccnc2ccccc12)Cc1ccc(-c2ccc(-c3ccc(C#N)cc3)s2)cc1 | -86.5 |
| COc1ccc(C2CC(c3cnccn3)=NN2)cc1OC (centres undefined) | 85.7 |
| COc1cc2oc(-c3cccc(C(=O)Nc4ccc(C#N)cc4)c3)cc(=O)c2c(O)c1OC | 55.5 |
| O=C1c2cccc3c(-c4ccc(-c5nc6c7ccccc7c7ccccc7c6[nH]5)cc4)ccc(c23)C(=O)N1CCN1CCNCC1 | -12.3 |
| CCN(CC)CCOc1ccc(/C(=C(\C)c2ccc(F)c(OC)c2)c2ccc(Cl)cc2)cc1 | 1.56 |
| N#Cc1c(-c2ccccc2)nc(SCC2CO2)nc1N1CCOCC1 (centres undefined) | 95 |
